TGI values by entry
# Test system: K-562 leukemia
# METHOD: NCI tumour cell line growth inhibition, 48 h

As a guide, the following entries are already answered.
CCCCN(CCCC)C(=O)C(=O)CC(=O)/C=C/c1ccccc1 :: > 100 µM
NC(=S)N/N=C\c1nccc2c(C(F)(F)C(F)(F)C(F)(F)F)cccc12 :: > 100 µM
CC(=O)O[C@H]1C(=O)[C@@]2(C)C(C(OC(=O)c3ccccc3)[C@]3(O)CC(OC(=O)C(O)C(NC(=O)c4ccccc4)c4ccc(C)cc4)C(C)=C1C3(C)C)[C@]1(OC(C)=O)CO[C@@H]1C[C@@H]2O (stereo not given in full) :: > 25 µM
O=S(=O)(O)c1ccc(Nc2ccnc3cc(Cl)ccc23)cc1 :: > 100 µM
O=C(Nc1ccccc1C(=O)Nc1nccs1)c1ccccc1 :: > 100 µM

Provide one value: measured TGI of O=C1C2=C(c3ccccc31)C(c1ccc(Cl)cc1)NC(=S)N2 (stereo not given)
40.2 µM

Please report the measured TGI for CCCNc1cccc(-n2ncc3c(N/N=C/c4ccncc4)ncnc32)c1
> 25 µM

Provide only the value of recorded TGI for O=C(O)Cc1cc(=O)[nH]c2c1C(=O)CCC2
> 100 µM

Tell me measured TGI for O=C(O)c1oc2cccc3c2c1CCC3 please.
> 100 µM

Note TGI for the compound shown: C=C1C[C@@H]2[C@H](CC[C@]3(C)C(=O)CC[C@@H]23)[C@@]2(C)C=CC(=O)C=C12
> 100 µM

Could you please provide reported TGI for C=C1C(=O)O[C@H]2C/C(C=O)=C\[C@H]3O[C@H]3/C(COC(=O)C(C)C)=C/CC12 (stereo not given in full) ? Thanks!
10.4 µM

Indicate its recorded TGI; the compound in question is OC(O)(C(F)(F)F)C(F)(F)F
> 100 µM

Return reported TGI. Input compound: O=C(Nc1ccccc1C(=O)O)C(=O)C(C(=O)c1ccccc1-c1ccccc1)C1OC(=O)c2ccccc21 (stereo not given)
> 100 µM

Recall and state the measured TGI for CC(=O)Nc1ccc(/C=C(\NC(=O)c2ccccc2)C(=O)NNS(=O)(=O)c2ccc(C)cc2)cc1 .
> 100 µM
